# TARGET OF ASSAY: T1, human CD19 (human, UniProt P15391 20-556)
# T1 sequence (looked up): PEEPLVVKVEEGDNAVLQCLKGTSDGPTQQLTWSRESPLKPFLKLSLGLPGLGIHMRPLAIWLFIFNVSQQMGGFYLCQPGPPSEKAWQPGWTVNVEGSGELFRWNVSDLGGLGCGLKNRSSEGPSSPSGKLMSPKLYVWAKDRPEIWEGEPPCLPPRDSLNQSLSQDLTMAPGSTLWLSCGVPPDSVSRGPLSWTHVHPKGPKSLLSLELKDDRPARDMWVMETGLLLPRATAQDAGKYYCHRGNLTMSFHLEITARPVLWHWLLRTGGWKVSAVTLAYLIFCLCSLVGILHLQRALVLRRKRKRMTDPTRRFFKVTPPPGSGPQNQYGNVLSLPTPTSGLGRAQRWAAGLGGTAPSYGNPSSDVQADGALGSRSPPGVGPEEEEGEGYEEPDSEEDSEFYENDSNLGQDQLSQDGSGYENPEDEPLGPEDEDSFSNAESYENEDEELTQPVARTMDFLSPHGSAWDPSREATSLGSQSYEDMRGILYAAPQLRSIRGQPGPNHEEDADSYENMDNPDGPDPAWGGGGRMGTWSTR
# TEST METHOD NOTES: cell-based or functional assay
MEASURED ATTRIBUTE: EC50 of cell viability, Fab-Zap assay on Ramos cells (internalization) (nM)
Express it in nM; write the number only.

GET /values?readout=EC50 of cell viability, Fab-Zap assay on Ramos cells (internalization)&item= WBP7011_4.56.1 (antibody, V domains shown, also called W7011-4.56.1) VH: EVQLQQSGPELVKPGASVKMSCKASGYTFTNYVIHWVKQKPGQGLEWIGYINPYNDGTEYNEKFKGKATLTSDTSSSTAYMALSSLTSEDSAVYYCTRGPYYYGGSPFDYWGQGTTLTVSS VL: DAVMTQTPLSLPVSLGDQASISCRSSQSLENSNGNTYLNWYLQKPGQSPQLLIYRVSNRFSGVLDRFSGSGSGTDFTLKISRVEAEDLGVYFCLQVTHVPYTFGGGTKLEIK
0.0084

GET /values?readout=EC50 of cell viability, Fab-Zap assay on Ramos cells (internalization)&item= WBP7011_4.231.5 (antibody, V domains shown, also called W7011-4.231.5) VH: EVQLQQSGPELVKPGASVKMSCKASGYTFTSYVMHWVKQKPGQGLEWIGYINPYNDGTQYNEKFKGKATLTSDKSSSTAYMELSSLTSEDSAVYYCARGPYYYSPSPFDYWGQGTTLTVSS VL: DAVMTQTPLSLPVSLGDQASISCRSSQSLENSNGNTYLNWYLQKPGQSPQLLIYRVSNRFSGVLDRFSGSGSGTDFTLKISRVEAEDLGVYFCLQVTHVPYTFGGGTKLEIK
0.0085

GET /values?readout=EC50 of cell viability, Fab-Zap assay on Ramos cells (internalization)&item= WBP7011_4.108.3 (antibody, V domains shown, also called W7011-4.108.3) VH: EVQLQQSGPELVKPGASVEMSCKASGYTFTSYVIHWLKQKPGQGLEWIGYINPYNDGAEYNEKFKGKATLTSDKSSSTAYMDLNSLTSEDSAVYYCARGPYYYGSSPFDYWGQGTTLTVSS VL: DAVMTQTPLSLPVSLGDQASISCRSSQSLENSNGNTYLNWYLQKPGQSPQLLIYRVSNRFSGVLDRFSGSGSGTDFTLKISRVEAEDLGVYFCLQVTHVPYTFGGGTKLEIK
0.0206

GET /values?readout=EC50 of cell viability, Fab-Zap assay on Ramos cells (internalization)&item= WBP7011_4.191.6 (antibody, mouse IgG1, V domains shown, Mouse monoclonal from hybridoma; isotype printed only for the sister subclone 4.191.3 (mouse IgG1, kappa); also called W7011-4.191.6) VH: EVQLLQSGPELVKPGASVKMSCKASGYTFTDYVIHWVKQRPGQGLEWIGYINPYNDGSEYSEKFKGKATLTSDKSSSTAYMELSSLTSEDSAVYYCARGPYYYGGSPFDYWGQGTTLTVSS VL: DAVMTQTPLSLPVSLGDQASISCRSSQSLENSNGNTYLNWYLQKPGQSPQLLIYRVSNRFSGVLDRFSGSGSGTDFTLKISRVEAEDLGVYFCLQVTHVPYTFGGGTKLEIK
0.0191

Reference source for all entries: patent US20200289563A1
